# Assay Notes: AUC (0 to infinity) in ferret at 10 mg/kg, iv
# Assay type: ADME, organism-based, Mustela putorius furo
# Design: time infinity, dose 10 mg/kg, route iv
# Particulars: in vivo
Quantity Kind: AUC(0-inf) (µM·h)
Number in µM·h, nothing else.

[ask] Kindly indicate its recorded AUC(0-inf). Item: CCC(CC)OC(=O)[C@H](C)N[P@](=O)(OC[C@H]1O[C@@](C#N)(c2ccc3c(N)ncnn23)[C@H](O)[C@@H]1O)Oc1ccccc1
[reply] 7

###

Kindly state EC50 for each of the entries shown.
# Test system: SARS-CoV-2
# Assay Notes: Antiviral activity against SARS-CoV-2 infected in human A549 cells expressing hACE2 assessed as reduction in viral replication at MOI of 0.025 incubated for 48 hrs by luciferase based assay
# Format: functional, organism-based
# Particulars: Severe acute respiratory syndrome coronavirus 2, A549, 48 h
Number in µM, nothing else.

[ask] Kindly indicate its recorded EC50. Item: CCC(CC)OC(=O)[C@H](C)N[P@](=O)(OC[C@H]1O[C@@](C#N)(c2ccc3c(N)ncnn23)[C@H](O)[C@@H]1O)Oc1ccccc1
[reply] 0.115

[ask] Kindly indicate its recorded EC50. Item: N#C[C@@]1(c2ccc3c(N)ncnn23)O[C@H](CO)[C@@H](O)[C@H]1O [GS-441524]
[reply] 0.869

Where do the numbers come from? From ChEMBL document CHEMBL5107958.
